Assay: AUC in rat at 1 mg/kg, po
Format: ADME, organism-based, Plasma
Parameters: dose 1 mg/kg, route oral
Conditions: plasma
result.type: AUC (ng·h/mL)

Cc1cc(C#N)nc(C)c1C(=O)N1CCC(C)(N2CCC(N3C(=O)N(CC4CCOCC4)C[C@@H]3c3ccccn3)CC2)CC1
187

I: CCO[C@H]1CC[C@H](CN2C[C@@H](c3ccccc3)N(C3CCN(C4(C)CCN(C(=O)c5c(C)ncnc5C)CC4)CC3)C2=O)CC1
II: Cc1ncnc(C)c1C(=O)N1CCC(C)(N2CCC(N3C(=O)N(CC4CCOCC4)CC3c3ccccc3)CC2)CC1 (racemic)
Q: Identify the item whose AUC is the smaller number: I or II Pick one; state its label.
Ans: I

* * *

Test system: Caco-2
Assay: Efflux ratio of permeability from basolateral to apical over apical to basolateral side in human Caco-2 cells after 21 days
Format: ADME, cell-based
Details: caco-2, 504 h
result.type: Ratio

CCCCC1CN(C2CCOCC2)C(=O)N1C1CCN(C2(C)CCN(C(=O)c3c(C)ncnc3C)CC2)CC1 (racemic)
52
Cc1cc(C#N)nc(C)c1C(=O)N1CCC(C)(N2CCC(N3C(=O)N(CC4CCOCC4)C[C@H]3c3ccccc3)CC2)CC1
20
CCCCC1CN(CC2CCOCC2)C(=O)N1C1CCN(C2(C)CCN(C(=O)c3c(C)ncnc3C)CC2)CC1 (racemic)
40

a: CCO[C@H]1CC[C@H](CN2C[C@H](c3ccccn3)N(C3CCN(C4(C)CCN(C(=O)c5c(C)cc(C#N)nc5C)CC4)CC3)C2=O)CC1
b: COC(=O)N1CCC(CN2C[C@@H](c3ccccc3)N(C3CCN(C4(C)CCN(C(=O)c5c(C)ncnc5C)CC4)CC3)C2=O)CC1
Q: Lowest Ratio? choose a or b Choose, then provide that item's label.
Ans: a

I: Cc1ncnc(C)c1C(=O)N1CCC(C)(N2CCC(N3C(=O)N(CC4CCOCC4)CC3c3ccccc3)CC2)CC1 (racemic)
II: CCCCC1CN(C2CCOCC2)C(=O)N1C1CCN(C2(C)CCN(C(=O)c3c(C)cc(C#N)nc3C)CC2)CC1 (racemic)
Q: Response body: label of entry with the larger Ratio; valid values I , II . The response must carry the label of the picked entry.
Ans: I

* * *

Assay: Permeability from apical to basolateral side of human Caco-2 cells after 21 days
Assay type: ADME, cell-based
Settings: read-out: permeability
result.type: Papp A→B (×10⁻⁶ cm/s)

Check out these entries, answers already filled in.
CCCCC1CN(C2CCOCC2)C(=O)N1C1CCN(C2(C)CCN(C(=O)c3c(C)cc(C#N)nc3C)CC2)CC1 (racemic)
1
Cc1ncnc(C)c1C(=O)N1CCC(C)(N2CCC(N3C(=O)N(CC4CCOCC4)C[C@H]3c3ccccc3)CC2)CC1
0.5
CCO[C@H]1CC[C@H](CN2C[C@H](c3ccccn3)N(C3CCN(C4(C)CCN(C(=O)c5c(C)cc(C#N)nc5C)CC4)CC3)C2=O)CC1
0.5
COC(=O)N1CCC(CN2C[C@@H](c3ccccc3)N(C3CCN(C4(C)CCN(C(=O)c5c(C)ncnc5C)CC4)CC3)C2=O)CC1
0.3

A: CO[C@H]1CC[C@H](CN2C[C@@H](c3ccccc3)N(C3CCN(C4(C)CCN(C(=O)c5c(C)ncnc5C)CC4)CC3)C2=O)CC1
B: CCCCC1CN(CC2CCOCC2)C(=O)N1C1CCN(C2(C)CCN(C(=O)c3c(C)ncnc3C)CC2)CC1 (racemic)
Q: Kindly identify the item with the lower Papp A→B figure among these two: A and B To answer, give the label that identifies your chosen option.
Ans: B
(B: 0.4 ×10⁻⁶ cm/s, A: 1.4 ×10⁻⁶ cm/s)
